Assign FACS-Seq fitted mean (log10) to each entry below.
B1: library; a variant is named by its letters at N, in order (parent)
chain: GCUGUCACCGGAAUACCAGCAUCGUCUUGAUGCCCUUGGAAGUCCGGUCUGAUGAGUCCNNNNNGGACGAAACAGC

Variants of: B1
Test: FACS-Seq fitted mean relative fluorescence mCherry/BFP without ligand (log10 relative fluorescence); higher = higher reporter protein expression
Details: HEK293T, ligand present: no
Answers are plain numbers.

- MUTATION ID: "AACUG"
  QUANTITATIVE RESULT: 0.814
- MUTATION ID: "CUACC"
  QUANTITATIVE RESULT: 0.996
- MUTATION ID: "CACAC"
  QUANTITATIVE RESULT: 0.945
- MUTATION ID: "UCGAU"
  QUANTITATIVE RESULT: 0.605
- MUTATION ID: "UGUGA"
  QUANTITATIVE RESULT: 0.563
- MUTATION ID: "GAAGU"
  QUANTITATIVE RESULT: 0.25
- MUTATION ID: "UACCC"
  QUANTITATIVE RESULT: 0.622
- MUTATION ID: "AUCGG"
  QUANTITATIVE RESULT: 0.827

Report FACS-Seq fitted mean (log10) for every entry below.
1. CUAAC
2. UAAUG
3. UUUUC
4. AAUUA
5. CUAAU

Reply |
[1.02, 0.816, 0.917, 0.392, 0.912]

Report FACS-Seq fitted mean (log10) for every entry below.
1. GUAUU
2. AACCU

Reply |
[0.754, 0.83]

The origin of these recorded values is the supplement of paper PMC6757056.
